# Experiment notes: clinical
# Protocol conditions: human, in vivo, po, 20 mg, t1/2
Endpoint label: half-life (h)

>>> val("C[C@]1(c2nc3c(C(N)=O)cccc3[nH]2)CCCN1 [veliparib]")
4.7

* * *

# Experiment notes: clinical
# Protocol conditions: human, in vivo, po, 90 mg, tmax
Endpoint label: Tmax (h)

>>> val("C[C@]1(c2nc3c(C(N)=O)cccc3[nH]2)CCCN1")
1

* * *

# Experiment notes: clinical
# Protocol conditions: human, in vivo, po, 40 mg, t1/2
Endpoint label: half-life (h)

>>> val("C[C@]1(c2nc3c(C(N)=O)cccc3[nH]2)CCCN1")
4.1

* * *

# Experiment notes: clinical
# Protocol conditions: human, in vivo, po, 90 mg, Cmax
Endpoint label: Cmax (ng/mL)

>>> val("C[C@]1(c2nc3c(C(N)=O)cccc3[nH]2)CCCN1")
509

* * *

# Experiment notes: clinical
# Protocol conditions: human, in vivo, po, 10 mg, Cmax
Endpoint label: Cmax (ng/mL)

>>> val("C[C@]1(c2nc3c(C(N)=O)cccc3[nH]2)CCCN1")
74.6

* * *

# Experiment notes: clinical
# Protocol conditions: human, in vivo, po, 90 mg, t1/2
Endpoint label: half-life (h)

>>> val("C[C@]1(c2nc3c(C(N)=O)cccc3[nH]2)CCCN1")
3.2

* * *

# Experiment notes: clinical
# Protocol conditions: human, in vivo, po, 100 mg, tmax
Endpoint label: Tmax (h)

>>> val("C[C@]1(c2nc3c(C(N)=O)cccc3[nH]2)CCCN1 [veliparib]")
1

* * *

# Experiment notes: clinical
# Protocol conditions: human, in vivo, po, 40 mg, tmax
Endpoint label: Tmax (h)

>>> val("C[C@]1(c2nc3c(C(N)=O)cccc3[nH]2)CCCN1")
1

* * *

# Experiment notes: clinical
# Protocol conditions: human, in vivo, po, 100 mg, t1/2
Endpoint label: half-life (h)

>>> val("C[C@]1(c2nc3c(C(N)=O)cccc3[nH]2)CCCN1")
5.9

* * *

# Experiment notes: clinical
# Protocol conditions: human, in vivo, po, 10 mg, t1/2
Endpoint label: half-life (h)

>>> val("C[C@]1(c2nc3c(C(N)=O)cccc3[nH]2)CCCN1")
5.5

* * *

# Experiment notes: clinical
# Protocol conditions: human, in vivo, po, 20 mg, Cmax
Endpoint label: Cmax (µg/mL)

>>> val("C[C@]1(c2nc3c(C(N)=O)cccc3[nH]2)CCCN1")
0.102

* * *

# Experiment notes: clinical
# Protocol conditions: human, in vivo, po, 40 mg, Cmax
Endpoint label: Cmax

>>> val("C[C@]1(c2nc3c(C(N)=O)cccc3[nH]2)CCCN1")
"231 ng/mL"
